meta.source: the supplement of paper PMC7411054

- System: WPMY1-ACTB-RAB5A
- procedureSummary: phenotypically active (imaging signature differs from DMSO and reproducible) at any of 0.3-9 uM (binary (1 = active, 0 = inactive)); higher = active
- conditionNotes: treatment time: 24 h
Where a name gives a salt, the structure may show the parent alone.
Classes used: true (1) (active), false (0) (inactive)

1) CC(C)c1cnn2c(NCc3ccccc3)cc(NCCCCCCN)nc12 [BS 181 dihydrochloride] ... false (0)
2) CO[C@H]1C[C@@H]2CC[C@@H](C)[C@@](O)(O2)C(=O)C(=O)N2CCCC[C@H]2C(=O)O[C@H]([C@H](C)C[C@@H]2CC[C@@H](OC(=O)C(C)(CO)CO)[C@H](OC)C2)CC(=O)[C@H](C)C=C(C)[C@@H](O)[C@@H](OC)C(=O)[C@H](C)C[C@H](C)C=CC=CC=C1C [Temsirolimus] ... true (1)
3) COc1ccc(CNC(=O)Nc2ncc([N+](=O)[O-])s2)cc1 ... false (0)
4) COc1ccccc1S(=O)(=O)Nc1ccc2c(c1)CN(C)C(=O)N2 ... true (1)
5) Cc1cccc(C)c1OCC(C)N (stereo not given) [mexiletine] ... false (0)
6) CCC1(C)OC(=O)N(C)C1=O (stereo not given) [paramethadione] ... false (0)
7) O=c1c(-c2ccc(O)cc2)coc2cc(O)cc(O)c12 [Genistein] ... true (1)
8) CCCc1nn(C)c2c(=O)[nH]c(-c3cc(S(=O)(=O)N4CCN(C)CC4)ccc3OCC)nc12 [Sildenafil citrate] ... false (0)
9) C#C[C@]1(O)CC[C@H]2[C@@H]3CCC4=CC(=NO)CC[C@@H]4[C@H]3CC[C@@]21CC [norelgestromin] ... false (0)
10) OC(CCN1CCCCC1)(c1ccccc1)C1CC2C=CC1C2 (stereo not given) [biperiden] ... false (0)
11) O=C1NCCCc2c1oc1ccc(O)cc21 ... true (1)
12) O=C(NCC1CCCCN1)c1cc(OCC(F)(F)F)ccc1OCC(F)(F)F (stereo not given) [flecainide] ... false (0)
13) NC[C@H](O)c1ccc(O)c(O)c1 [norepinephrine] ... false (0)
14) Brc1c(Br)c(Br)c2[nH]nnc2c1Br ... false (0)
15) CC(C)[C@H]1CC[C@H](C(=O)N[C@H](Cc2ccccc2)C(=O)O)CC1 [nateglinide] ... false (0)
16) CC(C)C(=O)Nc1ccc([N+](=O)[O-])c(C(F)(F)F)c1 [flutamide] ... false (0)
17) Cc1nnc(-c2ccc3occ(-c4ccc(S(C)=O)cc4)c3c2)o1 (stereo not given) ... true (1)
18) O=C(O)c1ccc(O)c2ncccc12 ... false (0)
19) COc1cc([C@@H]2c3cc4c(cc3[C@@H](O[C@@H]3O[C@@H]5CO[C@@H](C)O[C@H]5[C@H](O)[C@H]3O)[C@H]3COC(=O)[C@H]23)OCO4)cc(OC)c1O [etoposide] ... true (1)
20) CCC1(O)CC2CN(CCc3c([nH]c4ccccc34)C(C(=O)OC)(c3cc4c(cc3OC)N(C)C3C(O)(C(=O)OC)C(OC(C)=O)C5(CC)C=CCN6CCC43C65)C2)C1 (stereo not given) [Vinblastine sulfate] ... true (1)
21) Nc1nnc(-c2cccc(Cl)c2Cl)c(N)n1 [lamotrigine] ... false (0)
22) COc1ccc(C2(CNC(=O)c3ccc(NC(=O)c4ccco4)cc3)CCOCC2)cc1 ... false (0)
23) COc1cc(N2CCC(O)CC2)ccc1Nc1cc(Nc2ccccc2S(=O)(=O)C(C)C)c2cc[nH]c2n1 [Mps1-IN-1 dihydrochloride] ... true (1)
24) CC(C)NCCCn1c(Sc2cc3c(cc2I)OCO3)nc2c(N)ncnc21 ... true (1)
25) COc1ccc2c3c([nH]c2c1)[C@H]1C[C@H]2[C@H](C[C@@H](O)[C@H](OC)[C@H]2C(=O)O)CN1CC3 [Reserpinic acid hydrochloride] ... false (0)
26) NC12CC3CC(CC(C3)C1)C2 [amantadine] ... false (0)
27) CC(C)COCC(CN(Cc1ccccc1)c1ccccc1)N1CCCC1 (stereo not given) [bepridil] ... false (0)
28) N#C/C(=C/c1ccc(O)c(O)c1)C(=O)NCCCCc1ccccc1 ... true (1)
29) FC(F)(F)c1ccc(/C=C/c2nc(COc3ccc(CCCCn4ccnn4)cc3)co2)cc1 ... false (0)
30) Nc1ccc(O)c(C(=O)O)c1 [mesalazine] ... false (0)
31) CC1=CC(=O)CC(C)(C)C1(O)/C=C/C(C)=C\C(=O)O (mixture of isomers) [(+/-)-2-cis-4-trans-Abscisic acid] ... false (0)
32) CCCCCCOc1cc2c(cc1N(C)c1ncc(C(=O)O)cn1)C(C)(C)CCC2(C)C ... false (0)
33) O=C1CCc2c(ccc3ccccc23)O1 [Splitomicin] ... false (0)
34) C[N+](C)(C)CC[N+]1(C)Cc2c(Cl)c(Cl)c(Cl)c(Cl)c2C1 [Chlorisondamine diiodide] ... false (0)
35) CCc1cc2c(=O)c(-c3nc4ccccc4s3)coc2c(CN2CCCCC2)c1O ... false (0)
